Assay: Stability in Simulated Intestinal Fluid (SIF)
Format: in vitro ADME
Set-up: key: % parent compound remaining relative to 0-minute sample
Settings: % remaining at 1 h in simulated intestinal fluid
parameter: SIF (% remaining)

[a] CC(C)OCCn1c(SCOC(=O)C2CCNCC2)nc(=O)c2c1ccn2COC(=O)CCC(=O)O [Example 133]
[b] CC(C)OCCn1c(=S)[nH]c(=O)c2c1ccn2COC(=O)C1CN(C(=O)OC(C)(C)C)C1 [Example 127]
[c] CC(C)OCCn1c(=S)n(COC(=O)OCCOCCNC(=O)OC(C)(C)C)c(=O)c2c1ccn2COC(=O)OCCOCCNC(=O)OC(C)(C)C [Example 122]
[d] CC(C)OCCn1c(=S)[nH]c(=O)c2c1ccn2COC(=O)CCC(=O)OC(C)(C)C [Example 126]
Task item: // smallest SIF at index 0, largest at the end Labels, ranked as asked.
Reply: b, c, d, a
(b: 6 % remaining, c: 22 % remaining, d: 67 % remaining, a: 97 % remaining)

---

Assay: Plasma Stability
Type: in vitro ADME, human
Conditions: % remaining at 1 h; human plasma, 1 μM, 37° C.
parameter: human Plasma stability (%)

Example results:
| compound | reported result |
| --- | --- |
| CC(C)OCCn1c(SC(C)OC(=O)N(C)c2ncccc2COC(=O)CN(C)C(=O)OC(C)(C)C)nc(=O)c2[nH]ccc21 (stereo not drawn) | 97 |
| CC(C)OCCn1c(=S)[nH]c(=O)c2c1ccn2COC(=O)CCCCCCCCCCCCCCC(=O)O | 76 |
| CC(C)OCCn1c(SC(C)OC(=O)N(C(C)C)C(C)C)nc(=O)c2[nH]ccc21 (stereo not drawn) | 98 |
| CC(C)OCCn1c(=S)[nH]c(=O)c2c1ccn2COC(=O)CCCCNC(=O)OC(C)(C)C | 4 |
| CC(C)OCCn1c(=S)n(COCC[Si](C)(C)C)c(=O)c2[nH]ccc21 | 99 |

[I] CC(C)OCCn1c2nc(=O)c3c1ccn3COC(=O)CCCCCCC(=O)OCS2
[II] CC(C)OCCn1c(=S)[nH]c(=O)c2c1ccn2COC(=O)CCCCCCC(=O)OCn1ccc2c1c(=O)[nH]c(=S)n2CCOC(C)C
[III] CC(C)OCCn1c(=S)[nH]c(=O)c2c1ccn2COC(=O)[C@@H]1CCC(=O)N1C(=O)OC(C)(C)C
Task item: Task field, ranking: reported human Plasma stability, descending order. Labels, ranked as asked.
Reply: I, III, II
(I: 67%, III: 30%, II: 2%)

[A] CC(C)OCCn1c(=S)[nH]c(=O)c2c1ccn2COC(=O)CCNC(=O)CNC(=O)OC(C)(C)C
[B] COCCOCCOC(=O)OCSc1nc(=O)c2c(ccn2COC(=O)OCCOCCOC)n1CCOC(C)C
Task item: Compare A and B and name the one whose reported human Plasma stability is smaller. Reply briefly: the label of your chosen item.
Reply: B

---

Experiment: Caco-2 Permeability Assay
Format: in vitro ADME, human
Settings: human, Caco-2, pH 7.4, Caco-2 monolayer
parameter: Papp at 90 min, 10 µM (×10⁻⁶ cm/s)

| compound structure | parameter | reported result |
| --- | --- | --- |
| CC(C)OCCn1c(=S)[nH]c(=O)c2c1ccn2C(=O)OC(C)C | Papp at 90 min, 10 µM | 3.63 |

[I] CC(C)OCCn1c(SCOC(=O)N(C)C)nc(=O)c2c1ccn2COC(=O)N(C)C
[II] CC(C)C[C@H](NC(=O)OC(C)(C)C)C(=O)NCCC(=O)OCn1ccc2c1c(=O)[nH]c(=S)n2CCOC(C)C
Task item: Determine, for I and II , which has the greater value of Papp at 90 min, 10 µM. Reply briefly: the label of your chosen item.
Reply: II
(II: 8.61 ×10⁻⁶ cm/s, I: 2.56 ×10⁻⁶ cm/s)

[A] Cc1cccc(N(C)C(=O)OCn2c(=O)c3c(ccn3COC(=O)N(C)c3cccc(C)c3)n(CCOC(C)C)c2=S)c1
[B] CC(C)OCCn1c(=S)[nH]c(=O)c2c1ccn2COC(=O)[C@H]1CCN(C(=O)OC(C)(C)C)C1
Task item: Compare A and B and name the one whose reported Papp at 90 min, 10 µM is smaller. Reply briefly: the label of your chosen item.
Reply: A
